Source listed as PubChem BioAssay (Tox21).

Target: Nuclear receptor subfamily 1 group I member 3 (Homo sapiens)
Test: qHTS assay to identify small molecule agonists of the constitutive androstane receptor (CAR) signaling pathway (AID 1224839); further: nearly all actives have a fitted effect of over 15% in size;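 on activation: HepG2 cells stably carrying human CAR and a CYP2B6 luciferase reporter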
Details: HepG2 hCAR CYP2B6-luciferase, agonist mode, 24 h; series mostly up to 92.4 µM
Records with an inconclusive call do not appear. Calls of active or inactive are those of the source. The call rests on the fitted dose curve; in most records, active means well fitted activation curve with a large enough effect in the repeat runs; inconclusive means weak or mixed curves; inactive means no such curve, though single readings can be large or run the other way.
Outcome field: choose from Yes = active, No = inactive

Worked examples follow.
CC/C=C(\C)C=O ... No
O=c1[nH]cccc1O ... No
CCOC(=O)[C@H](O)[C@@H](O)C(=O)OCC ... No
CC(C)(C)C1=CC(=O)C(C(C)(C)C)=CC1=O ... Yes
CN1CCN(c2ccccc2/C=C2\SCCN(c3ccc(Cl)c(Cl)c3)C2=O)CC1 ... No

## Input Recorded test outcome, item CCCCCN=C(N)N/N=C/c1c[nH]c2ccc(OC)cc12
## Output No

## Input What do you get for O=C(Cl)c1ccc(Cl)cc1Cl ?
## Output No
